System: Moloney murine leukemia virus
experiment-description: Inhibition of Moloney murine leukemia virus reverse transcriptase using [3H-methyl]-dTTP as substrate after 120 mins
Design: unit not given here
property-name: log(I50×10^5)

Field: example entries. Status: answers known.
CC12SSC3(C(=O)N1c1ccccc1)N(C2=O)c1ccccc1C3(C)C (configuration not stated) : 1.69
CN1C(=O)C23SSC1(c1ccccc1)C(=O)N2c1ccccc1C3(C)C (configuration not stated) : 0.978
CCCN1C(=O)C23SSC1(C)C(=O)N2c1ccccc1C3(C)C (configuration not stated) : 1.06
CC(C)N1C(=O)C23SSC1(C)C(=O)N2c1ccccc1C3(C)C (configuration not stated) : 1.93
CCN1C(=O)C23SSC1(C)C(=O)N2c1ccccc1C3(C)C (configuration not stated) : 1.89

Please state, for each entry, its recorded log(I50×10^5).
1. CN1CC(=O)N2c3ccccc3C(C)(C)C2(S)C1=O (configuration not stated)
2. CC12SSC3(C(=O)N1Cc1ccccc1)N(C2=O)c1ccccc1C3(C)C (configuration not stated)

1: 2.07; 2: 0.574

---

experiment-description: Lipophilicity of the compound by reversed-phase HPLC analysis
details: ODS stationary phase, MeOH-H2O (2:1) mobile phase
Lab note: cut-off is -0.1. Strictly less in log k' is Met. Exactly -0.1 or more is Not met.

Lab note: record k' threshold -0.1. Does this compound come in strictly under it? CCCN1C(=O)C23SSC1(C)C(=O)N2c1ccccc1C3(C)C (configuration not stated)
Not met

Please indicate whether the reported log k' of CN1C(=O)C23SSC1(c1ccccc1)C(=O)N2c1ccccc1C3(C)C (configuration not stated) is strictly below -0.1.
Not met

---

experiment-description: Lipophilicity of the compound by reversed-phase TLC analysis
Assay type: physicochemical
details: RP-TLC on silylated silica plates impregnated with Dow-Corning 704 fluid
// n strictly below 0.3 in Rm; y otherwise

CCCN1C(=O)C23SSC1(C)C(=O)N2c1ccccc1C3(C)C (configuration not stated) : n

Record CN1CC(=O)N2c3ccccc3C(C)(C)C2(S)C1=O (configuration not stated) ; criterion: Rm no lower than 0.3. Met?
n

Quick check, Rm >= 0.3? CC12SSC3(C(=O)N1Cc1ccccc1)N(C2=O)c1ccccc1C3(C)C (configuration not stated)
y

Assess whether reported Rm for CC(C)N1C(=O)C23SSC1(C)C(=O)N2c1ccccc1C3(C)C (configuration not stated) sits at 0.3 or higher.
n

Does Rm meet or surpass 0.3 for CC12SSC3(C(=O)N1c1ccccc1)N(C2=O)c1ccccc1C3(C)C (configuration not stated) ?
n

Kindly determine if Rm recorded for CCN1C(=O)C23SSC1(C)C(=O)N2c1ccccc1C3(C)C (configuration not stated) is above or exactly 0.3.
n

---

experiment-description: Lipophilicity of the compound by reversed-phase HPLC analysis
details: ODS stationary phase, MeOH-H2O (2:1) mobile phase
Label true (1) when log k' is strictly below -0.1; otherwise label false (0).

Example entries and their recorded answers appear below.
CC(C)N1C(=O)C23SSC1(C)C(=O)N2c1ccccc1C3(C)C (stereo not given) : true (1)
CC12SSC3(C(=O)N1c1ccccc1)N(C2=O)c1ccccc1C3(C)C (stereo not given) : true (1)
CCN1C(=O)C23SSC1(C)C(=O)N2c1ccccc1C3(C)C (stereo not given) : true (1)
CC12SSC3(C(=O)N1Cc1ccccc1)N(C2=O)c1ccccc1C3(C)C (stereo not given) : false (0)

log k' under -0.1? Item: CN1CC(=O)N2c3ccccc3C(C)(C)C2(S)C1=O (stereo not given)
true (1)
